- Tested on: MS2 coat protein
- method: apparent Kd, MS2 coat protein; higher = weaker binding; RNA-MaP array; FMN 200 µM where present
- assay-setup: ligand present: flavin mononucleotide; designed as: OFF switch for flavin mononucleotide
Class yes: apparent Kd at least 30 nM. Class no: apparent Kd below 30 nM.

**Q:** Check the entry "GGAUAGUGUCGUUAUCCGUAGCGAACAUGAGGAUCACCCAUGUAGGAUAUGUUAUUAAACUAAUAACAGAAGGGCGUGAGUCUC" : does apparent Kd equal or exceed 30 nM?
**A:** yes

* * *

- Test system: MS2 coat protein
- method: apparent Kd, MS2 coat protein; higher = weaker binding; RNA-MaP array; tryptophan 2.4 mM where present
- assay-setup: designed as: ON switch for tryptophan; no ligand
quantity-kind: apparent Kd (nM)
Numbers only, in nM.

- sequence-string: "AGCCACUCGAACAUGGGUGACGAGUGGCAACGAGGACCGGUACGGCCGCCACUCGAAUAAACAUGAGGAUCACCCAUGUACAAAU"
  study-system: "MS2 coat protein"
  apparent Kd, nM: 292
- sequence-string: "GCAUCCUAGUCGGCCGCCACUGGUAUGAACACCUUCACCCGUGUGCACAUGAGGAUCACCCAUGUUAGGACCGGGACUAGGAUGC"
  study-system: "MS2 coat protein"
  apparent Kd, nM: 9.03
- sequence-string: "AGAAUAUAGUCGGCCGCCACUCUACAUACAUGAGGAUCACCCAUGUUUACAUAGUGAAUAUACAUGAGGACCGGGACAUAGGCAU"
  study-system: "MS2 coat protein"
  apparent Kd, nM: 21.8

Could you now look at the following sequence, please?
**Q:** Which apparent Kd is listed for "CCUCAAUAGACGGCCGCCACUGAAACAUGAGGAUACAUGAGGAUCACCCAUGUGGGUGUGUUACGCAGGACCGGGUCAAGACCCG" ?
**A:** 207

* * *

- Tested on: MS2 coat protein
- method: apparent Kd, MS2 coat protein; higher = weaker binding; RNA-MaP array; FMN 200 µM where present
- assay-setup: ligand present: flavin mononucleotide; designed as: OFF switch for flavin mononucleotide
quantity-kind: apparent Kd (nM)
Answers are plain numbers, in nM.

- sequence-string: "UUUUGGUCAGGAUAUUGUUAGUUUAGUUGUUUGUAUUAGUUCGAGAAGGGACAUGAGGAUCACCCAUGUGGUUU"
  experimental-result: 58.9
- sequence-string: "UAUAUAUAGGCAGGAUAUACAUGAAUAUAUAUAAUAUAAUAUAAUGUAACAUGAGGAUCACCCAUGUAGAAGGGCCAAUAUAUA"
  experimental-result: 59.9
- sequence-string: "AUAAUUUUAUAUAUCAUUUUAAUCAGAAGGCAUAACAUGAGGAUCACCCAUGUAAAUUAAUGUUAUGAGGAUAUGAUUUGGUUA"
  experimental-result: 147

Items follow; give apparent Kd for each.
1. CCGAUAAGGAGAGGAUAUGGACAUGAGGAUCACCCAUGUACAUGGGAAUAUAUACUGAAUUUUUACUAGAAGGCUUACAUAAAU
2. CCUCCCUGAGGAUAUCCACCCUCAUACAUGAGGAUCACCCAUGUUCAACCCUGGGUUCCCGGAGAAGGCAGUUUUC
3. GAUCGUUCUGUUAGGAUAUGCUUUGGGCUUCCGCAGUAGAAGGAACAUGAGGAUCACCCAUGUCCGAUGCCGUC

**A:**
1: 12.6; 2: 102; 3: 28.1

For each of the sequences below, state apparent Kd.
1. UAAAUUUACAAGAAGGCUAACAUGAGGAUCACCCAUGUUGUACAUGGAUAUAGAGGAUAUUGCUAAUAAUUAUUUAUCAUAAUU
2. UUGUUAUAUGUAGGAUAUGCAUAUUAUUAUUAUGCAGAAGGACAUGAGGAUCACCCAUGUAUAUUAUUGUUAUAUGUUAUAUAU
3. CGUGACUCAGGAUAUCUAUUAUGUCACAUGAGGAUCACCCAUGUCCAGCGAAAGCUGGAGGGAGAAGGGAGUCACG
4. CCGUUACAUGAGGAUCACCCAUGUGAGGAUAUCGAUGUAACUAGCAGCGUGCGGGACUCGAGAAGGCACUUGGC

**A:**
[19.5, 25.4, 34.9, 75.2]

Batch request: apparent Kd per item, same order as input.
1. UCCUGGCGAGGAUAUACAAAGUUUUUUACGUUUUGUUACGAACAUGAGGAUCACCCAUGUAGAAGGUGCUGCUG
2. AAUAAUGUGAAGGAUAUCACUAGCGAUAGCUAGUGAGAAGGUCACACAUGAGGAUCACCCAUGUGUUCCAAUAA
3. CUUUUGUGAGGAUAUCAGUAGUAAAUAAAUAUAAUUACUACUGAGAAGGCACAUGAGGAUCACCCAUGUUCCUC
4. UAUUUACAUGAGGAUCACCCAUGUCAGGAUAUGCGUCUAUCGUCGAAAGACGAUAGUUGCAGAAGGGACAAUAU

**A:**
1: 58.1; 2: 172; 3: 274; 4: 123

Working through the 3 sequences below one at a time, give apparent Kd for each.
1. GUUAAGGUAGGAUAUACGAUAAUAUAGGGUAGAGAUAUAACACAUGAGGAUCACCCAUGUAGAAGGACCAAUUG
2. GUGCAGAUGUAAGGAUAUCGACUGGAAUACAGUCGAGAAGGUACAUGAGGAUCACCCAUGUAAAUGAAAGAUAAUAAACUGCAC
3. UUCUUACAUGAGGAUCACCCAUGUCAGGAUAUCUCCUCACUGCGCUUGCGCAGUGGAUAGAGAAGGGACAGGCU

**A:**
75.2
26.1
50.1

Please report apparent Kd for every entry that follows.
1. GUUUACCGAGGAUAUACAUGAGGAUCACCCAUGUUCCUAAUAAACAUCGGUUCAGCGUGUAGAAGGCGGACCUA
2. ACGACGAAAGUCGAACGAUGUAGCAGAAGGACAUGAGGAUCACCCAUGUAAAAUGUAACAGCCAUGUAGGAUAUGCUACAUCGA
3. ACAUGAUCAGGAUAUACAUGAGGAUCACCCAUGUAUUUCAAAAAGGGACUUUCUUUAUGUAGAAGGGAUCUUGU
4. CUUCUUGGGCAAGGAUAUCCUGUGCGGUUCCGGCUCGUGUCUGUCACAUGAGGAUCACCCAUGUGGGAGAAGGUGCCUGCGGUC
5. GCGUCAGAAUUAAUUGUGACAGGCAGAAGGCUAUAUCUUAUGUCAGACAUGAGGAUCACCCAUGUAGAGGAUAUGCAGUUACAC
6. AAUCCACAUGAGGAUCACCCAUGUCAGGAUAUGGUGACGCGGGUUUCGGUGCGUGUUGCCAGAAGGGACGGCUG
7. UGUGUGAGACAGGAUAUGCCGGUUGUAUUGCUGGUAGAAGGGUCUACAUGAGGAUCACCCAUGUGGCCGGUUGG
8. ACAGUGCGAGGAUAUACAUGAGGAUCACCCAUGUGAGAGAAAUAAGUGAGGAAGAAAAGUAGAAGGCGCGUUGA

**A:**
[53.9, 238, 43.1, 6.79, 17.9, 46.7, 23.2, 91.7]

Quick batch: apparent Kd for everything below.
1. GGACGGAAAGUGAGGAUAUGCUCUACCUCGGUAGAGCAGAAGGCACAUGAGGAUCACCCAUGUGAUUACUGUUC
2. GCGGGUAAAGCAGGAUAUCUAAUGUCACGGAAACAUGAGGAUCACCCAUGUAGAGAAGGGCUAAGUCAUACAAUUCGAAUUUGC
3. UUCAGACAUGAGGAUCACCCAUGUGAGGAUAUGAUGCAGCAGUGGUCUACGCUGUGCAUCAGAAGGCACAUGUG

**A:**
1. 184
2. 8.24
3. 32.7

# return apparent Kd for each item in the list
1. UCGCUGCGAGGAUAUACAUGAGGAUCACCCAUGUACGGGUCCGGGUCUAAGUUGAUAAGUAGAAGGCGCAGUGA
2. UGAGCAUCAGGAUAUAUGUGGCGACCGUGAGGUCGAAGGUUACAUGAGGAUCACCCAUGUAGAAGGGAUGUUCU

**A:**
[112, 203]
